Recorded pIC50, one value per entry.
biological target: human PD-L1 / Human PD-1 (Homo sapiens (Human)); assay: Enzyme-Linked Immunosorbent Assay (ELISA), PD-1/PD-L1 binding; conditions: Table 2; plate-coated human PD-L1, biotinylated human PD-1; read-out: ELISA IC50
Sequence (Q9NZQ7 19-239): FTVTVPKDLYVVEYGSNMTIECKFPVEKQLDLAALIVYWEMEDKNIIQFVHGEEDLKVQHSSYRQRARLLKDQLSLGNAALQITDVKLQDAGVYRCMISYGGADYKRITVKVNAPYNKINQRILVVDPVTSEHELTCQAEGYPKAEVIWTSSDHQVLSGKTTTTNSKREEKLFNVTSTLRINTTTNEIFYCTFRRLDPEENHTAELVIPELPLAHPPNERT
pIC50: −log10 of the molar value.

Please fill in: pIC50 reported for COc1cc(O[C@H]2CCc3c(-c4ccc5c(c4)OCCO5)cccc32)c(Cl)cc1CN[C@@H](CO)C(=O)O [Example 2.039] = > 7.00

Please fill in: pIC50 reported for N#CCCCCOc1cc(O[C@H]2CCc3c(-c4ccccc4F)cccc32)c(Cl)cc1CN1CCC(O)CC1 [Example 2.090] = 6.30 to 7.00

Please fill in: pIC50 reported for N#Cc1cncc(COc2cc(O[C@H]3CCc4c(-c5ccccc5F)cccc43)c(Cl)cc2CN2CC[C@H](O)C2)c1 [Example 2.020] = 6.30 to 7.00

Please fill in: pIC50 reported for COc1ccc(Cl)c(-c2cccc3c2CC[C@@H]3Oc2cc(OCc3cncc(C#N)c3)c(CN[C@@H](CO)C(=O)O)cc2Cl)c1 [Example 2.065] = > 7.00

Please fill in: pIC50 reported for N#Cc1cncc(COc2cc(O[C@H]3CCc4c(-c5cc(C#N)ccc5F)cccc43)c(Cl)cc2CN[C@@H](CO)C(=O)O)c1 [Example 2.062] = 4.70 to 6.30

Please fill in: pIC50 reported for N#Cc1cncc(COc2cc(O[C@H]3CCc4c(-c5ccccc5F)cccc43)c(Cl)cc2CNCc2cnn[nH]2)c1 [Example 2.025] = 6.30 to 7.00

Please fill in: pIC50 reported for N#Cc1cncc(COc2cc(O[C@H]3CCc4c(-c5ccccc5F)cccc43)c(Cl)cc2CN2CC[C@H](O)[C@H](F)C2)c1 [Example 2.113] = 4.70 to 6.30

Please fill in: pIC50 reported for N#Cc1cncc(COc2cc(O[C@H]3CCc4c(-c5ccccc5F)cccc43)c(Cl)cc2CN2CCCC(O)C2)c1 (stereo partly drawn) [Example 2.030] = 6.30 to 7.00

Please fill in: pIC50 reported for CCOC(=O)[C@H](CO)NCc1cc(Cl)c(O[C@H]2CCc3c(-c4ccccc4F)cccc32)cc1OCc1cncc(C#N)c1 [Example 2.162] = 4.70 to 6.30

Sourced from patent US10639284B2
